Assay: activity coefficient (dimensionless); of the first substance listed, at infinite dilution; xn = mol fraction of the nth substance listed
Conditions: 353.15 K; Liquid; Chromatography; x1 = 0
reported_endpoint: activity coefficient

Examples with their reported activity coefficient follow.
compound="CCCO [propan-1-ol] + CCn1cc[n+](C)c1.CS(=O)(=O)[O-]" value=0.742
compound="COC(C)=O [methyl ethanoate] + CCn1cc[n+](C)c1.CS(=O)(=O)[O-]" value=3.66
compound="C1CCCCC1 [cyclohexane] + CCn1cc[n+](C)c1.CS(=O)(=O)[O-]" value=84.3
compound="Cc1ccccc1 [toluene] + CCn1cc[n+](C)c1.CS(=O)(=O)[O-]" value=9
compound="CO [methanol] + CCn1cc[n+](C)c1.CS(=O)(=O)[O-]" value=0.247

[A] C=CCCCCCC [oct-1-ene] + CCn1cc[n+](C)c1.CS(=O)(=O)[O-]
[B] c1ccsc1 [thiophene] + CCn1cc[n+](C)c1.CS(=O)(=O)[O-]
[C] COC(C)(C)C [2-methoxy-2-methylpropane] + CCn1cc[n+](C)c1.CS(=O)(=O)[O-]
[D] CC#N [acetonitrile] + CCn1cc[n+](C)c1.CS(=O)(=O)[O-]
-- ask rank_up(items): orders items by reported activity coefficient in ascending numerical order. To answer, arrange all of the labels according to the requested order.
-- reply D, B, C, A

[1] CC(C)O [propan-2-ol] + CCn1cc[n+](C)c1.CS(=O)(=O)[O-]
[2] CCc1ccccc1 [ethylbenzene] + CCn1cc[n+](C)c1.CS(=O)(=O)[O-]
[3] CC1CCCCC1 [methylcyclohexane] + CCn1cc[n+](C)c1.CS(=O)(=O)[O-]
[4] COCCOC [1,2-dimethoxyethane] + CCn1cc[n+](C)c1.CS(=O)(=O)[O-]
-- ask Hi! Can you put these in order of activity coefficient, lowest number first? When ranking, write the labels in the order the request describes.
-- reply 1, 4, 2, 3
(1: 0.9, 4: 5.8, 2: 17.3, 3: 147)

[1] ClCCl [dichloromethane] + CCn1cc[n+](C)c1.CS(=O)(=O)[O-]
[2] CCCCCCC [heptane] + CCn1cc[n+](C)c1.CS(=O)(=O)[O-]
-- ask # min-compare on activity coefficient between 1 and 2 Mark your answer with the label of the selected entry.
-- reply 1
(1: 0.887, 2: 422)

* * *

Assay: activity coefficient (dimensionless); of the first substance listed, at infinite dilution; xn = mol fraction of the nth substance listed
Details: 343.15 K; Liquid; Chromatography; x1 = 0
reported_endpoint: activity coefficient

Some solved entries appear below for comparison.
molecule="CCCO [propan-1-ol] + CCn1cc[n+](C)c1.CS(=O)(=O)[O-]" reported_endpoint="activity coefficient" value=0.754
molecule="ClC(Cl)(Cl)Cl [tetrachloromethane] + CCn1cc[n+](C)c1.CS(=O)(=O)[O-]" reported_endpoint="activity coefficient" value=5.62
molecule="FC(F)(F)C(Cl)Br (stereo unspecified) [1-bromo-1-chloro-2,2,2-trifluoroethane] + CCn1cc[n+](C)c1.CS(=O)(=O)[O-]" reported_endpoint="activity coefficient" value=0.843
molecule="C1CCCCC1 [cyclohexane] + CCn1cc[n+](C)c1.CS(=O)(=O)[O-]" reported_endpoint="activity coefficient" value=93.2
molecule="CC(C)=O [acetone] + CCn1cc[n+](C)c1.CS(=O)(=O)[O-]" reported_endpoint="activity coefficient" value=2.48
molecule="c1ccccc1 [benzene] + CCn1cc[n+](C)c1.CS(=O)(=O)[O-]" reported_endpoint="activity coefficient" value=4.48

[a] COC(=O)OC [dimethyl carbonate] + CCn1cc[n+](C)c1.CS(=O)(=O)[O-]
[b] ClCCl [dichloromethane] + CCn1cc[n+](C)c1.CS(=O)(=O)[O-]
-- ask Hi team, can someone confirm which has the larger activity coefficient: a or b ? Thanks. Choose, then provide that item's label.
-- reply a

[1] COC(C)(C)C [2-methoxy-2-methylpropane] + CCn1cc[n+](C)c1.CS(=O)(=O)[O-]
[2] CC#N [acetonitrile] + CCn1cc[n+](C)c1.CS(=O)(=O)[O-]
[3] COCCOC [1,2-dimethoxyethane] + CCn1cc[n+](C)c1.CS(=O)(=O)[O-]
-- ask # desc sort on activity coefficient across 3 molecules # format: label list in the order the request specifies
-- reply 1, 3, 2

Value source: the NIST ThermoML archive (doi:10.1016/j.fluid.2010.10.008)
